Source of measurements: ChEMBL document CHEMBL4392888

- system_name: Tyrosinase (Homo sapiens, UniProt P14679)
- Sequence (P14679 whole entry): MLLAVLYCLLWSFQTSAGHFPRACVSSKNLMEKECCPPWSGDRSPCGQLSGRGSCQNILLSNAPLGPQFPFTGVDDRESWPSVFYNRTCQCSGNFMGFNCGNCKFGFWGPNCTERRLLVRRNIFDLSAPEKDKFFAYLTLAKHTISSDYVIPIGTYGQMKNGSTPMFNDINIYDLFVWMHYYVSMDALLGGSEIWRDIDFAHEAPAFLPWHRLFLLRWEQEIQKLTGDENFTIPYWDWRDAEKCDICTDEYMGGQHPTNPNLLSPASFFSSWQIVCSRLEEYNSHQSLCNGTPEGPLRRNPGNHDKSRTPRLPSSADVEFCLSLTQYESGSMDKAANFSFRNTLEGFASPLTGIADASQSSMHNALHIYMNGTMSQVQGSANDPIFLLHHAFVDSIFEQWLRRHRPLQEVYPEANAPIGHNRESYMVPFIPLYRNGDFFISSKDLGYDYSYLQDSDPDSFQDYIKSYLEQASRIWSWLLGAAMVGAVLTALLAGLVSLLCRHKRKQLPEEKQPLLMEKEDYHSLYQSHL
pIC50: −log10 of the molar value.
# pIC50 listing for each entry below
value_kind: pIC50

>>> obs_value("C[C@@H]1O[C@@H](OC[C@H]2O[C@@H](Oc3cc(O)c4c(=O)cc(-c5ccc(O)cc5)oc4c3)[C@H](O)[C@@H](O)[C@@H]2O)[C@H](O)[C@H](O)[C@H]1O")
"< 4.30"
>>> obs_value("O=c1c(O[C@@H]2O[C@H](CO)[C@@H](O)[C@H](O)[C@H]2O)c(-c2ccc(O)c(O)c2)oc2cc(O)cc(O)c12")
"< 4.30"
>>> obs_value("O=C(/C=C/c1ccc(O)c(O)c1)O[C@H]1[C@H](O)[C@@H](O)[C@H](Oc2cc(O)c3c(=O)cc(-c4ccc(O)c(O)c4)oc3c2)O[C@@H]1CO")
"< 4.30"
>>> obs_value("C=C[C@]1(C)C[C@H](OC(=O)C(=C)CO)[C@@H]2[C@H](OC(=O)[C@H]2CN2CCC[C@H]2C(=O)O)[C@H]1C(=C)CO")
"< 4.30"
>>> obs_value("C=C(CO)C(=O)O[C@H]1C/C(C)=C/CC/C(CO)=C/[C@H]2OC(=O)[C@@H](CN3CCC[C@H]3C(=O)O)[C@H]12")
"< 4.30"
>>> obs_value("COC(=O)[C@H]1O[C@@H](Oc2cc(O)c3c(=O)cc(-c4ccc(OC)cc4)oc3c2)[C@H](O)[C@@H](O)[C@@H]1O")
"< 4.30"
>>> obs_value("O=c1cc(-c2ccc(O)cc2)oc2cc(O[C@@H]3O[C@H](CO)[C@@H](O)[C@H](O)[C@H]3O)cc(O)c12")
"< 4.30"
